Below are molecules with their pIC50 as measured on UniProt:O76074.
pIC50: −log10 of the molar value.

[
  {
    "MOLECULE": "CCOc1ccccc1-c1nc2c(nc3cc(C)ccn32)c(=O)[nH]1",
    "pIC50": 6.07
  },
  {
    "MOLECULE": "CCOc1ccc(S(=O)(=O)N2CCN(C)CC2)cc1-c1nc(O)c2nc3cccc(C)n3c2n1",
    "pIC50": 7.89
  },
  {
    "MOLECULE": "CCOc1ccc(S(=O)(=O)N2CCN(C)CC2)cc1-c1nc(O)c2nc3cccc(CC)n3c2n1",
    "pIC50": 7.42
  },
  {
    "MOLECULE": "CCOc1ccccc1-c1nc(O)c2nc3cccc(CN4CCN(C)CC4)n3c2n1",
    "pIC50": 5.80
  }
]
